TARGET_SYSTEM: pooled human IgG (human IgG1, 2, 3 and 4)
Catalogue of Enzyme Activity Endpoint Assay (purified): IgG readings, one per entry.
Could you write the number and then its unit?

Prompt line: Need Enzyme Activity Endpoint Assay (purified): IgG of PRT-603 (protein) MQITTVWTKGVTPLTPEQFRYNNEDVIHAPYLAHQGWYDITKAFDGKDNLLCGAATAGNMLHWWFDQNKTEIEAYLSKHPEKQKIIFNNQELFDLKAAIDTKDSQTNSQLFNYFRDKAFPNLSARQLGVMPDLVLDMFINGYYLNVFKTQSTDVNRPYQDKDKRGGIFDAVFTRGDQTTLLTARHDLKNGGLNDISTIIKQELQSGRALALSHTYANVSISHVINLWGADFNAEGNLEAIYVTDSDANASIGMKKYFVGINAHGHVAISAKKIEGENIGAQVLGLFTLSSGKDIWQKLSLEHHHHHH , thanks.
Response line: 0 ng/µL

Okay, now this protein:
Prompt line: Need Enzyme Activity Endpoint Assay (purified): IgG of PRT-647 (protein) MQITSVWTKGVTPLTPEQFRYNNEDVIHAPYLAHQGWYDITKAFDGKDNLLCGAATAGNMLHWWFDQNKTEIEAYLSKHPEKQKIIFNNQELFDLKAAIDTKDSQTNSQLFNYFRDKAFPNLSARQLGVMPDLVLDMFINGYYLNVFKTQSTDVNRPYQDKDKRGGIFDAVFTRGDQTTLLTNRYDLYDKGLNDISTIIKQELTEGRALALSHTYANVSISHVINLWGADFNAEGNLEAIYVTDSDANASIGMKKYFVGINAHGHVAISAKKIEGENIGAQVLGLFTLSSGKDIWQKLSLEHHHHHH , thanks.
Response line: 0 ng/µL
